Test system: MOLT-4
Test: NCI tumour cell line growth inhibition, 48 h
Activity calls are given as the source filed them. Cut-off read from the data, not from the text of the source: active = GI50 up to about 1.1 µM and inactive = higher.
QUANTITY: GI50

Entry under review: COC(=O)c1ccccc1/C=C1\Cc2c(ccc3c2CCC3)C1=O . Reported GI50?
> 100 µM (inactive)

Please answer likewise for O=C1NC(c2ccccc2Cl)Nc2ccccc21 (stereo not given)
8.77 µM (inactive)

Please answer likewise for CCOC(=O)/C(C#N)=C1\N[C@H](C(=O)OCC)CO1
> 100 µM (inactive)

Please answer likewise for N=C(N)NS(=O)(=O)c1ccc(NC(=O)c2ccc3nc4ccccc4c(O)c3c2)cc1
> 100 µM (inactive)

Please answer likewise for O=C(c1ccccc1)C1(Br)S(=O)(=O)OCCOS1(=O)=O
> 100 µM (inactive)

----------
System: M14
Test: NCI tumour cell line growth inhibition, 48 h
Activity calls are given as the source filed them. Rule as the data show it: active = GI50 up to about 1.1 µM and inactive = higher. Non-standard residues stand in square brackets, D forms with d. Residues, ends and D or L forms follow the SMILES beside them. ξ: configuration not given here. *: point of attachment. ξF = NC(Cc1ccccc1)C(=O)O; Cbz = O=C(OCc1ccccc1)*; Aib = CC(C)(N)C(=O)O
Output constraint: value belongs to active, inactive

Hi, sorry to bother you, what did the test record for CN(C)C(=N/O)/C(=N\O)N(C)C ?
inactive

Please answer likewise for Clc1ccc2[nH]c(CC3CCCC3)nc2c1
inactive

Please answer likewise for O=c1[nH]c(=S)[nH]c2c(C3OC(CO)C(O)C3O)nsc12 (stereo not given)
inactive

Please answer likewise for NC1=NN(c2ccccc2)C(=O)C1/C(=N\NC(=O)c1cc2ccccc2cc1O)C(=O)Nc1ccc(Cl)cc1 (stereo not given)
inactive

Please answer likewise for O=P(c1ccccc1)(c1ccccc1)C1CC=C2CCCCCC2C1 (stereo not given)
inactive

Please answer likewise for CC1=C(/C=C/C(C)=C/C=C/C(C)=C/C(=O)OC2CC(n3cc(F)c(=O)[nH]c3=O)OC2CO)C(C)(C)CCC1 (stereo not given)
inactive

Please answer likewise for O=C(CCc1nnc(S)[nH]1)NC12CC3CC(CC(C3)C1)C2
inactive

Please answer likewise for CCC(=O)OC1CCn2c1nc1c2C(=O)C(C)=C(N2CC2)C1=O (stereo not given)
active

Please answer likewise for C=CCSC1=N/C(=C\c2ccccc2)C(=O)N1CC=C
inactive

Please answer likewise for CCCCCCCCCCNC(=O)CCC(NC(=O)c1ccc(N(C)Cc2cnc3nc(N)nc(N)c3n2)cc1)C(=O)NCCCCCCCCCC (stereo not given)
inactive

Please answer likewise for CC(C)[S+]1C2=C(CC(C)(C)CC2=O)[N-]c2ccccc21 (stereo not given)
inactive

Please answer likewise for C[N+](C)(C)CC(=O)N/N=C/c1ccncc1
inactive

Please answer likewise for Cc1cc([N+](=O)[O-])ccc1Sc1c2ccccc2nc2cc(Cl)ccc12
inactive

Please answer likewise for CN1CCN(c2c(Cl)cc(Cl)c3[nH]c4ccccc4c(=O)c23)CC1
inactive

Please answer likewise for CCOC(=O)CNC(=O)C(Cc1ccccc1)NC(=O)C(C)(C)NC(=O)OCc1ccccc1 (stereo not given) (Cbz-[Aib]-[ξF]-Gly-OEt)
inactive

----------
Test system: NCI/ADR-RES
Experiment: NCI tumour cell line growth inhibition, 48 h
Activity calls are given as the source filed them. Rule as the data show it: active = GI50 up to about 1.1 µM and inactive = higher.
For each entry below, report its GI50 value.

Entry under review: O=C(Cc1ccc2ccccc2c1)NCc1ccc(C(=O)NCCc2ccccc2)cc1 . Reported GI50?
> 100 µM (inactive)

Please answer likewise for N#CCCC1(CCC#N)CCc2ccccc2C1=O
> 100 µM (inactive)

Please answer likewise for C[C@H](C1CC2(C)OC2(C)C(=O)O1)[C@H]1CC[C@H]2[C@@H]3[C@@H]4O[C@@H]4[C@@]4(O)CC=CC(=O)[C@]4(C)[C@H]3CC[C@]12C (stereo partly drawn)
> 50 µM (inactive)

----------
For each entry below, report its GI50 value.
System: HCT-116
Assay: NCI tumour cell line growth inhibition, 48 h
Calls of active or inactive are those of the source. Rule as the data show it: active = GI50 up to about 1.1 µM and inactive = higher.

Entry under review: COc1ccc(/C=C2\SC(c3ccc(OC)cc3)N(NC(=O)Cc3ccccc3)C2=O)cc1 (configuration not stated) . Reported GI50?
> 100 µM (inactive)

Please answer likewise for CCN(CC)C(=S)N/N=C/c1cc(OC)ccc1O
4.86 µM (inactive)

Please answer likewise for CSc1nc(=O)c2nc(-c3cccs3)c(-c3cccs3)nc2n1C
> 100 µM (inactive)

Please answer likewise for O=c1c2cc3ccccc3n2c(=O)c2cc3ccccc3n12
> 100 µM (inactive)

Please answer likewise for C[C@@]12C[C@@H](c3ccccc3O1)N1CCCSC1=N2
> 100 µM (inactive)

Please answer likewise for CCOC(=O)/N=c1\ss/c(=N\C(=S)N(C)C)n1-c1ccccc1
7.62 µM (inactive)

Please answer likewise for CN(C)C(=S)N/N=C(\C(=N/NC(=S)N(C)C)c1ccccn1)c1ccccn1
5.78 µM (inactive)

Please answer likewise for CSc1ccc(C(=C=C=C(c2ccc(SC)s2)c2ccc(SC)s2)c2ccc(SC)s2)s1
> 10 µM (inactive)

Please answer likewise for COc1ccc(C2=Nn3c(nc4sc5c(c4c3=O)CCCC5)SC2)cc1
> 100 µM (inactive)

Please answer likewise for CCSC1=N/C(=C\c2ccco2)C(=O)N1
> 100 µM (inactive)

Please answer likewise for N#Cc1c2ccccc2c(Cc2ccc3c(c2)OCCOCCOCCOCCOCCO3)c2ccccc12
6.12 µM (inactive)

Please answer likewise for CN(C)CCCN1c2ccccc2CCc2cc([N+](=O)[O-])ccc21
20.5 µM (inactive)

----------
Test system: OVCAR-4
Assay: NCI tumour cell line growth inhibition, 48 h
Activity calls are given as the source filed them. Rule as the data show it: active = GI50 up to about 1.1 µM and inactive = higher.
Output constraint: value belongs to 1 (yes) = active, 0 (no) = inactive

Hi, sorry to bother you, what did the test record for COc1ccc(C2=Nn3c(nc4sc5c(c4c3=O)CCCC5)SC2)cc1 ?
0 (no)

Please answer likewise for CCOC(=O)C(=O)Nc1c(C)cccc1C
0 (no)

Please answer likewise for CN(C)C(=S)/N=c1\ss/c(=N\c2ccccc2)n1-c1ccccc1
1 (yes)

Please answer likewise for Cc1ccc2c(c1)C(=O)C(C1OC(=O)c3ccccc31)C2 (stereo not given)
0 (no)

Please answer likewise for Cc1cccc(N2C(=O)C3c4[nH]c5ccccc5c4C4CCC(C(C)(C)C)CC4C3C2=O)c1 (stereo not given)
0 (no)

Please answer likewise for FC(F)(F)c1nc(-c2ccccc2Cl)[nH]c1C(F)(F)F
1 (yes)

Please answer likewise for O=C(c1ccccc1)C1(Br)S(=O)(=O)OCCOS1(=O)=O
0 (no)

Please answer likewise for Clc1ccc2[nH]c(CC3CCCC3)nc2c1
0 (no)

Please answer likewise for c1ccc(CNc2c3c(nc4ccccc24)CCC3)cc1
0 (no)

Please answer likewise for COc1ccc(OC)c(C[P+](c2ccccc2)(c2ccccc2)c2ccccc2)c1
0 (no)

Please answer likewise for COc1cc(/C=C/C(=O)O)ccc1OS(=O)(=O)O
0 (no)

Please answer likewise for Cc1nc(SCC(=O)Nc2ccccc2)c2sc(=S)n(-c3ccccc3)c2n1
0 (no)

Please answer likewise for CN(Cc1cnc2nc(N)nc(N)c2n1)c1ccc(C(=O)NC(CCS(=O)(=O)O)C(=O)O)cc1 (stereo not given)
0 (no)

Please answer likewise for CSc1ccc(C(=C=C=C(c2ccc(SC)s2)c2ccc(SC)s2)c2ccc(SC)s2)s1
0 (no)

Please answer likewise for CC(=O)CC(=O)N1CCOC1=O
0 (no)

----------
For each entry below, report its GI50 value.
System: CCRF-CEM
Experiment: NCI tumour cell line growth inhibition, 48 h
Active and inactive are the calls of the source. Rule as the data show it: active = GI50 up to about 1.1 µM and inactive = higher.

Entry under review: CC(=O)OC1OC2C(NC(=O)OC(C)(C)C)C1CC2(OCc1ccccc1)OCc1ccccc1 (centres undefined) . Reported GI50?
18.3 µM (inactive)

Please answer likewise for CCOc1ccc(/N=N/S(=O)(=O)O)cc1
> 100 µM (inactive)

Please answer likewise for CSCCCNC(=O)c1csc(-c2csc(CCNC(=O)CNC(=O)CNC(=O)OC(C)(C)C)n2)n1
> 100 µM (inactive)

Please answer likewise for COC(=O)C(Cc1ccccc1)NC(=O)C(CCC(=O)OCc1ccccc1)NC(=O)OC(C)(C)C (centres undefined)
64.9 µM (inactive)

Please answer likewise for CN(NC1=NCCO1)c1ccc2ccccc2c1
17.2 µM (inactive)

Please answer likewise for Cc1nc2ccccc2c(=O)[nH]1
> 100 µM (inactive)

Please answer likewise for CC1=C(c2nc3ccccc3s2)C(=O)OC1(C)C
> 100 µM (inactive)

Please answer likewise for O=c1c2cc(Cl)ccc2n2nnc3ccc(NCCNCCO)c1c32
0.56 µM (active)

Please answer likewise for CCN(CC)CCn1c(=O)c2c(C)c3oc4ccccc4oc3c(C)c2c1=O
> 100 µM (inactive)

----------
Tested on: HOP-62
Assay: NCI tumour cell line growth inhibition, 48 h
The source made the active and inactive calls. Rule as the data show it: active = GI50 up to about 1.1 µM and inactive = higher.
Output constraint: value belongs to yes (1) for active, no (0) for inactive

Hi, sorry to bother you, what did the test record for Cn1c2ccccc2c2c(=O)[nH]c(=O)[nH]c21 ?
no (0)

Please answer likewise for C=CC(OC(C)=O)c1ccc(OC(C)=O)cc1 (stereo not drawn)
no (0)

Please answer likewise for CN(C)C(=S)/N=c1\ssc(=S)n1Cc1ccncc1
no (0)

Please answer likewise for CCCCc1c2c([n+]([O-])c3c1CCCC3)CCCC2
no (0)

Please answer likewise for CC(=O)Oc1ccc(/C=C/C(=O)OCCCOC(=O)/C=C/c2ccc(OC(C)=O)c(OC(C)=O)c2)cc1OC(C)=O
no (0)

Please answer likewise for Cc1cccc2c(N)c3cccc(C(=O)NCCCNCCN)c3nc12
no (0)

Please answer likewise for CC(C)(CN1CCCCC1)C(=O)/C=C/c1ccc(/C=C/C(=O)C(C)(C)CN2CCCCC2)cc1
yes (1)

Please answer likewise for CCO/C([O-])=C(\C(=O)c1ccc([N+](=O)[O-])cc1)[n+]1c(C)n(C)c2ccccc21
no (0)
